- systemUnderTest: rat CB2 (Rattus norvegicus, UniProt Q9QZN9)
- Sequence (Q9QZN9 whole entry): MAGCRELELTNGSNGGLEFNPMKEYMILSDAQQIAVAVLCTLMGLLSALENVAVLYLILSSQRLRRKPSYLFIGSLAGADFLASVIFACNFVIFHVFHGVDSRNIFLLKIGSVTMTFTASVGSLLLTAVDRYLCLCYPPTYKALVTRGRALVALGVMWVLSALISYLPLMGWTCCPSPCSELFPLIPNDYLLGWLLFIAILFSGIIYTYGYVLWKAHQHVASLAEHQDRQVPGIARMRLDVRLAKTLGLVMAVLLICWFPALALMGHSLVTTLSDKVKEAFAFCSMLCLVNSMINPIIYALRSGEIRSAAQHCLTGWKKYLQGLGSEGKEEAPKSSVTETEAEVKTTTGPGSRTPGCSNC
- assay: rat CB2 cyclase functional assay (HitHunter cAMP)
- Format: cell-based
- Parameters: expressed in transfected cells; host or cells: HEK
- details: HEK cells, forskolin 18 μM; read-out: rat CB2 cyclase (EC50)
What EC50 was measured for each of the following?
Give bare numbers, in nM.

Please review the following examples before continuing.
# smilesRecord, numericResult
data = [
    ("Cn1c(C(C)(C)C)c/c(=N\\C(=O)c2cc(C(F)(F)F)ccc2OC[C@@H]2CCC(C)(C)O2)n1C[C@H]1CCCO1", 0.93),
    ("Cn1c(C(C)(C)C)c/c(=N\\C(=O)c2cc(C(F)(F)F)ccc2OCCNC(=O)OC(C)(C)C)n1C[C@H]1CCCO1", 1000),
]

Switching to the query record.
(Q) Consider the molecule Cn1c(C(C)(C)C)c/c(=N\C(=O)c2cc(C(F)(F)F)ccc2OC[C@@H]2C=CCO2)n1C[C@H]1CCCO1 tested on rat CB2 (Rattus norvegicus, UniProt Q9QZN9); state its EC50.
(A) 0.3

Data provenance: patent US8188135B2
